# target under test: CFTR in F508del/F508del primary CF hBE cells (Homo sapiens, UniProt P13569, DEL508-508)
# Construct: Primary cystic fibrosis human bronchial epithelial (CF hBE) cells were expanded and cultured; endogenous in cells
# Sequence (P13569 with tags, fused parts or gaps DEL508-508): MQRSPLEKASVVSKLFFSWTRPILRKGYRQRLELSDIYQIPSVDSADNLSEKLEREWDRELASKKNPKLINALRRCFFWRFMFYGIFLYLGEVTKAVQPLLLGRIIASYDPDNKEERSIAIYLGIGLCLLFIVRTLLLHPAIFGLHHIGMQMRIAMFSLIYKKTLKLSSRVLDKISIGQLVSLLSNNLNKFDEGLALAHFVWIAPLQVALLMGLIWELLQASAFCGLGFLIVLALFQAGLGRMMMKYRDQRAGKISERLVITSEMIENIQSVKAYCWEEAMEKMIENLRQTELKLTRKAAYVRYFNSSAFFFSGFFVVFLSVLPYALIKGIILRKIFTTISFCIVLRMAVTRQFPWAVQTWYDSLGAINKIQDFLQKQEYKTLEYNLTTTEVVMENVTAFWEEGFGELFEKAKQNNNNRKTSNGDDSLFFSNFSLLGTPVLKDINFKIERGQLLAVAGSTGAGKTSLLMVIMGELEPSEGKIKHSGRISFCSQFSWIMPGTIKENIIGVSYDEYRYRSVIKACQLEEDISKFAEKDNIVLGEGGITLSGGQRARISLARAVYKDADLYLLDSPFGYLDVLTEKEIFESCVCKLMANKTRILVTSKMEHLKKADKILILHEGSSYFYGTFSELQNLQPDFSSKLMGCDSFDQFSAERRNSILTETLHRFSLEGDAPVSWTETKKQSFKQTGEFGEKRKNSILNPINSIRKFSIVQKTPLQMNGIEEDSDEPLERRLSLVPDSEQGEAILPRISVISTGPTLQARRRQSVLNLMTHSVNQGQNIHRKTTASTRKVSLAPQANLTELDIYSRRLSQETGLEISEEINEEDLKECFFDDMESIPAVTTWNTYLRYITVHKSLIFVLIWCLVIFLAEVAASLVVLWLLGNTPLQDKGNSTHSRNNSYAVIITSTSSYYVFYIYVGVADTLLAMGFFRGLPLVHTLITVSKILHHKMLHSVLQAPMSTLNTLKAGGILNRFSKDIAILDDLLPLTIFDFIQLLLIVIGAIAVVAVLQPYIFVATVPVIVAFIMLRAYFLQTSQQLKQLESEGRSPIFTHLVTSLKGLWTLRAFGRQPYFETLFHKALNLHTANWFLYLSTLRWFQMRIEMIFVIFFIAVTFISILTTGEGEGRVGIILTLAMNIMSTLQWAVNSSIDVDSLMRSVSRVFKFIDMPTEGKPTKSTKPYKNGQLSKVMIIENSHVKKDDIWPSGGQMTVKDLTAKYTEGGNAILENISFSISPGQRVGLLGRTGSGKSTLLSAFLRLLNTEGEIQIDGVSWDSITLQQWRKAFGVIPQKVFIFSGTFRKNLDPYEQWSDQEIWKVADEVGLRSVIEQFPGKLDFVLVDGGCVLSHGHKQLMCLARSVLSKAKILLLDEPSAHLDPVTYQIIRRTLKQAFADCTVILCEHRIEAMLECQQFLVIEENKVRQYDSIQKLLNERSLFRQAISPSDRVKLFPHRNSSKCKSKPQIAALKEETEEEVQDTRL
# assay summary: Ussing chamber electrophysiology assay of CFTR potentiation in F508del/F508del CF bronchial epithelial cells (27° C.)
# Description: • SHELXTL, Version 5.1, Bruker AXS, 1997. • PLATON, A. L. Spek, J. Appl. Cryst. 2003, 36, 7-13. • MERCURY, C. F. Macrae, P. R. Edington, P. McCabe, E. Pidcock, G. P. Shields, R. Taylor, M. Towler and J. van de Streek, J. Appl. Cryst. 39, 453-457, 2006. • OLEX2, Dolomanov, O. V.; Bourhis, L. J.; Gildea, R. J.; Howard, J. A. K.; Puschmann, H., (2009). J. Appl. Cryst., 42, 339-341. • R. W. W. Hooft et al. J. Appl. Cryst. (2008). 41. 96-103. • H. D. Flack, Acta Cryst. 1983, A39, 867-881. […]
experimental readout: pEC50
Please express pEC50 as -log10 of the molar concentration.

Q: I would be grateful if you could share the reported pEC50 for CCC(c1cn(-c2ccccc2F)nn1)n1c(C#N)c(-c2cnc(C(F)(F)F)nc2)c2c(N)ncnc21 (single isomer, unassigned) [Example 22] .
Result: 8.16

Next:
Q: What does the record list as pEC50 for CCC(c1cn(-c2ccccc2F)nn1)n1cc(-c2nccnc2OC)c2c(N)ncnc21 (single isomer, unassigned; enantiomer 2) [Example 136] ?
Result: 8.46

Q: Form field: reported pEC50 of Nc1ncnc2c1c(-c1ccc(Cl)cc1)cn2Cc1cc(C2CCCCC2)no1 [Example 269]
Result: 7.64

Q: # get_value(readout='pEC50', item= CCC(c1cn(-c2ccc(OC)nc2)nn1)n1cc(-c2cnc(C(F)(F)F)nc2)c2c(N)ncnc21 (single isomer, unassigned; enantiomer 1) [Example 309] )
Result: 7.16

Q: Data request, read-out pEC50, for CC(c1cc(-c2ccccc2F)no1)n1cc(-c2ccc(Cl)cc2)c2c(N)ncnc21 (single isomer, unassigned; enantiomer 2) [Example 182]
Result: 6.35
